tested on: NCI-H522 lung; test: NCI-60 one-dose screen, 48 h; conditions: 10 µM unless noted
About 83,000 compounds went through this panel and 20% of them were active in at least one assay; those are over-represented in the sample as a whole. The source made the active and inactive calls. How the source made its calls: active means growth percent below 10; inactive means the rest.
Thanks in advance; please answer with one of these: t for active, f for inactive

[
  {
    "compound": "CC1=C(C(=O)OCc2ccccc2)C(c2ccc(N(C)C)cc2)n2c(nc3ccccc32)N1 (stereo not drawn)",
    "test system": "NCI-H522 lung",
    "assigned class": "t"
  },
  {
    "compound": "O=C1NC(=S)/C(=C/c2cn(-c3ccccc3)nc2-c2ccccc2)S1",
    "test system": "NCI-H522 lung",
    "assigned class": "t"
  }
]

# outcome recorded in this test, key = CCN1C(=O)N(CC)C2NNC(Sc3c(C(=O)O)c4ccccc4n(CC(C)C)c3=O)=NC21 (stereo not drawn)
t

Tell me the recorded outcome of this test for Cc1ccc(S(=O)(=O)N(CCn2ccnc2[N+](=O)[O-])CCn2ccnc2[N+](=O)[O-])cc1 .
f

Answer briefly: the call reported for COc1ccc2[nH]cc(-c3cc(N)n4nc(-c5c[nH]c6ccccc56)cc4n3)c2c1 in this assay.
t

Record request — test call for COc1ccc(-c2cc(-c3cc(C(C)C)c(O)cc3C)nn2-c2ccc(S(N)(=O)=O)cc2)cc1
t

What outcome does the record of this test show for O=C(NN1C(=O)/C(=C/C=C/c2ccc([N+](=O)[O-])o2)SC1=S)c1ccc(O)cc1 ?
t

Please state the recorded outcome for this compound: NS(=O)(=O)c1cccc(Nc2nc(SCC(=O)c3ccc(F)cc3)nc3ccccc23)c1
t

Per the records of this test, what outcome belongs to Cn1cc(-c2cc(N)n3nc(-c4c[nH]c5ccccc45)cc3n2)c2ccccc21 ?
t
